For each record, write down the corresponding ALT.
species on record: Rattus norvegicus; assay: Open TG-GATES - Regimen: Single; format: toxicity, organism-based, Sprague-Dawley; parameters: regimen Single, gender Male, age 6 weeks; settings: in vivo, po, 100 mg/kg, 24 h, tissue Plasma, route gavage, dose level Low
One number for each entry, in IU/L.

# Molecule, ALT (IU/L)
records = [
    ("O=C(O)c1cc(/N=N/c2ccc(S(=O)(=O)Nc3ccccn3)cc2)ccc1O [SULFASALAZINE]", 40.4),
    ("Clc1ccccc1CN1CCc2sccc2C1 [TICLOPIDINE]", 37.8),
    ("CCc1cc(C(N)=S)ccn1 [ETHIONAMIDE]", 38.6),
]

Go through the items and report each one's ALT.
1. C[C@H](CS)C(=O)N1CCC[C@H]1C(=O)O [CAPTOPRIL]
2. O=C(O)c1cn(C2CC2)c2cc(N3CCNCC3)c(F)cc2c1=O [CIPROFLOXACIN]

Reply:
1. 40.8
2. 40.4

* * *

organism: Rattus norvegicus; assay: Open TG-GATES - Regimen: Single; assay type: toxicity, organism-based, Sprague-Dawley; parameters: regimen Single, gender Male, age 6 weeks; settings: in vivo, po, 0 mg/kg, 24 h, tissue Blood, route gavage, dose level Control
Assay endpoint: Lym (%)
One number for each entry, in %.

Please state Lym for every compound in the list that follows.
1. CN(C)CCC=C1c2ccccc2CCc2ccccc21 [AMITRIPTYLINE]
2. O=C(O)c1cc(/N=N/c2ccc(S(=O)(=O)Nc3ccccn3)cc2)ccc1O [SULFASALAZINE]
3. COc1ccc(Cc2nccc3cc(OC)c(OC)cc23)cc1OC [PAPAVERINE]
4. COc1cc2c(c3oc(=O)c4c(c13)CCC4=O)[C@@H]1C=CO[C@@H]1O2 [AFLATOXIN]
5. CSc1ccc2c(c1)N(CCC1CCCCN1C)c1ccccc1S2 (stereo not drawn) [THIORIDAZINE]
6. C[C@H](CS)C(=O)N1CCC[C@H]1C(=O)O [CAPTOPRIL]
7. CCc1cc(C(N)=S)ccn1 [ETHIONAMIDE]

Reply:
[77.8, 73.8, 81, 79, 73, 77.6, 75.6]

* * *

species: Rattus norvegicus; test: Open TG-GATES - Regimen: Single; assay type: toxicity, organism-based, Sprague-Dawley; parameters: regimen Single, gender Male, age 6 weeks; details: in vivo, po, 0 mg/kg, 24 h, tissue Blood, route gavage, dose level Control
Please go through the items and note down their PT.
Answers are plain numbers, in s.

# Molecule, Observed
rows = [
    ("NC(=O)N1c2ccccc2C=Cc2ccccc21 [CARBAMAZEPINE]", 12.1),
    ("Clc1ccccc1CN1CCc2sccc2C1", 11.9),
]

Batch request: PT for each of the following molecules.
1. COc1ccc(Cc2nccc3cc(OC)c(OC)cc23)cc1OC
2. Cn1c(=O)c2[nH]cnc2n(C)c1=O.O
3. CN(C)CCC=C1c2ccccc2CCc2ccccc21

Reply:
[16, 15.9, 16.3]

* * *

species on record: Rattus norvegicus; assay: Open TG-GATES - Regimen: Single; type: toxicity, organism-based, Sprague-Dawley; parameters: regimen Single, gender Male, age 6 weeks; settings: in vivo, po, 100 mg/kg, 3 h, tissue Plasma, route gavage, dose level Low
So I've got a bunch of compounds here, and I need their TBIL values.
One number for each entry, in mg/dL.

Look over these answered cases.
# Compound, Units label, TBIL
measured = [
    ("O=C(O)c1cc(/N=N/c2ccc(S(=O)(=O)Nc3ccccn3)cc2)ccc1O", "mg/dL", 0.1),
    ("O=C(O)c1cn(C2CC2)c2cc(N3CCNCC3)c(F)cc2c1=O", "mg/dL", 0.4),
    ("CCc1cc(C(N)=S)ccn1 [ETHIONAMIDE]", "mg/dL", 0.4),
    ("C[C@H](CS)C(=O)N1CCC[C@H]1C(=O)O", "mg/dL", 0.4),
]

Documented TBIL of `Clc1ccccc1CN1CCc2sccc2C1` : 0.1

* * *

species: Rattus norvegicus; assay: Open TG-GATES - Regimen: Daily Repeat; format: toxicity, organism-based, Sprague-Dawley; design: regimen Daily Repeat, gender Male, age 6 weeks; conditions: in vivo, po, 0 mg/kg, […], tissue Plasma, route gavage, dose level Control, time 28 day
Lab note: cut-off is 0.01 mg/dL. Strictly less in DBIL is true (1). Exactly 0.01 mg/dL or more is false (0).

Answered examples (3):
# Compound, Category label
records = [
    ("CCCC(CCC)C(=O)O", "false (0)"),
    ("NC(=O)N1c2ccccc2C=Cc2ccccc21 [CARBAMAZEPINE]", "false (0)"),
    ("COc1ccc(Cc2nccc3cc(OC)c(OC)cc23)cc1OC", "true (1)"),
]

Query: Field: below-cutoff. Rule: recorded DBIL strictly less than 0.01 mg/dL. Subject: `O=C(O)c1cc(/N=N/c2ccc(S(=O)(=O)Nc3ccccn3)cc2)ccc1O`
Reply: false (0)

Query: Regarding `C[C@H](CS)C(=O)N1CCC[C@H]1C(=O)O` , kindly confirm whether its DBIL is beneath 0.01 mg/dL.
Reply: false (0)

Query: Does the reported DBIL of `Clc1ccccc1CN1CCc2sccc2C1` stay below 0.01 mg/dL?
Reply: false (0)

* * *

Record form. Attribute: DBIL. Fill in for each entry.
species on record: Rattus norvegicus; assay: Open TG-GATES - Regimen: Daily Repeat; format: toxicity, organism-based, Sprague-Dawley; design: regimen Daily Repeat, gender Male, age 6 weeks; conditions: in vivo, po, 0 mg/kg, 72 h, tissue Plasma, route gavage, dose level Control, time 3 day
Give bare numbers, in mg/dL.

Example entries and their recorded answers appear below.
# Molecule, DBIL, mg/dL
data = [
    ("CCCC(CCC)C(=O)O [VALPROIC ACID]", 0.062),
    ("CCc1cc(C(N)=S)ccn1 [ETHIONAMIDE]", 0.018),
    ("CN(C)CCC=C1c2ccccc2CCc2ccccc21 [AMITRIPTYLINE]", 0.02),
    ("CSc1ccc2c(c1)N(CCC1CCCCN1C)c1ccccc1S2 (stereo unspecified) [THIORIDAZINE]", 0.034),
    ("COc1ccc(Cc2nccc3cc(OC)c(OC)cc23)cc1OC [PAPAVERINE]", 0),
]

Turning to the following molecule.
Quick note, DBIL for NC(=O)N1c2ccccc2C=Cc2ccccc21 [CARBAMAZEPINE] landed at 0.08

* * *

organism: Rattus norvegicus; assay: Open TG-GATES - Regimen: Single; format: toxicity, organism-based, Sprague-Dawley; design: regimen Single, gender Male, age 6 weeks; conditions: in vivo, po, 100 mg/kg, 6 h, tissue Liver, route gavage, dose level Low
Assay endpoint: LIVER (g)
One number for each entry, in g.

# Compound, LIVER [g]
data = [
    ("O=C(O)c1cn(C2CC2)c2cc(N3CCNCC3)c(F)cc2c1=O [CIPROFLOXACIN]", 8.1),
    ("CCc1cc(C(N)=S)ccn1 [ETHIONAMIDE]", 10.8),
]

For each of the compounds below, state LIVER.
1. O=C(O)c1cc(/N=N/c2ccc(S(=O)(=O)Nc3ccccn3)cc2)ccc1O [SULFASALAZINE]
2. Clc1ccccc1CN1CCc2sccc2C1 [TICLOPIDINE]

Reply:
1: 9.7; 2: 8.7

* * *

species: Rattus norvegicus; assay: Open TG-GATES - Regimen: Single; format: toxicity, organism-based, Sprague-Dawley; set-up: regimen Single, gender Male, age 6 weeks; details: in vivo, po, 0 mg/kg, 24 h, tissue Plasma, route gavage, dose level Control
Assay endpoint: ALT (IU/L)
Numbers only, in IU/L.

Past entries and their recorded results:
# Compound, Units label, ALT
records = [
    ("NC(=O)N1c2ccccc2C=Cc2ccccc21 [CARBAMAZEPINE]", "IU/L", 39.2),
    ("O=C(O)c1cn(C2CC2)c2cc(N3CCNCC3)c(F)cc2c1=O", "IU/L", 47),
    ("COc1ccc(Cc2nccc3cc(OC)c(OC)cc23)cc1OC", "IU/L", 46.2),
    ("O=C(O)c1cc(/N=N/c2ccc(S(=O)(=O)Nc3ccccn3)cc2)ccc1O", "IU/L", 45),
    ("Clc1ccccc1CN1CCc2sccc2C1", "IU/L", 43.8),
    ("CCc1cc(C(N)=S)ccn1 [ETHIONAMIDE]", "IU/L", 40.8),
    ("NC(=O)N/N=C/c1ccc([N+](=O)[O-])o1", "IU/L", 48.4),
    ("COc1cc2c(c3oc(=O)c4c(c13)CCC4=O)[C@@H]1C=CO[C@@H]1O2", "IU/L", 40),
    ("CSc1ccc2c(c1)N(CCC1CCCCN1C)c1ccccc1S2 (stereo not given)", "IU/L", 36),
]

Then this compound:
Input `Cn1c(=O)c2[nH]cnc2n(C)c1=O.O` . Output ALT: 40.8
